Can you tell me self-splicing fitness (ln) for the items I'm about to list?
experiment: self-splicing fitness, log relative to wild type (ln ratio); higher = more splicing; Tetrahymena group I intron in knt gene, E. coli kanamycin selection, DiMSum; sequences stand for … in CUCUCU…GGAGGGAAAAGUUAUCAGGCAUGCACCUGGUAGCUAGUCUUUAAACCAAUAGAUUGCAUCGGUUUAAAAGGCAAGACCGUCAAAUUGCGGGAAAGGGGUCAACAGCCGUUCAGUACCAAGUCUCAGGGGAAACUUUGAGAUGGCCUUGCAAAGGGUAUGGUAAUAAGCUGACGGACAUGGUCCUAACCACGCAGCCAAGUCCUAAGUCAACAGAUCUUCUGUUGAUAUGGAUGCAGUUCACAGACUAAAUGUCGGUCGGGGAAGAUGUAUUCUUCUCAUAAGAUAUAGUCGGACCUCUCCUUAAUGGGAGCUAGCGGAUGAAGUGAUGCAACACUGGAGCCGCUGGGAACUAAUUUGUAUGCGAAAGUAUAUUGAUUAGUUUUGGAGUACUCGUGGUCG; conditions: 30 °C;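 also: selection with 25 µg/mL kanamycin versus none on LB agar overnight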

Please give the measured self-splicing fitness (ln) for this sequence: "CGACAGCAAUAUUACGAGCA"
-2.11

Could you do the same for "GGGUAGCAAUAUUACGCGCA" , please?
-0.0848

Entry "GGAUAGCAAUAUUACGACCG" please
-1.59

Quick one: "GCCAAGCAAUAUUACGGCUC"
-1.99

Next sequence up: "UCACAGCAAUAUUACGUCCA"
-0.951

Try the sequence "GUUCAGCAAUAUUACGUUGA"
-3.12

Follow-up item: "AGCGAGCAAUAUUACGGUCU"
-1.42

Also need "AUUCAGCAAUAUUACGUACU" , thanks.
0.26

Try the sequence "CUAGAGCAAUAUUACGGGUU"
-4.2

Input "ACUGAGCAAUAUUACGGGGG"
-3.19

Quick one: "AAUCAGCAAUAUUACGAGUC"
-2.05

Next record, please: "UGGCAGCAAUAUUACGACCC"
0.0617

Another sequence: "CAAGAGCAAUAUUACGGUCA"
-2.4

And the next one, "GAUCAGCAAUAUUACGGCCU" ?
-1.13

Then this sequence: "UUAUAGCAAUAUUACGCCCG"
-1.45

Proceed to "UGAAAGCAAUAUUACGAGCU"
-1.42

Same question for "CUACAGCAAUAUUACGAUGG" please.
-1.44

Now the sequence "GCAAAGCAAUAUUACGUCGG"
-3.15

Similarly, "UCUCAGCAAUAUUACGAGUA" ?
-1.35

# credit: the supplement of paper PMC7877785
